assay: DRUGMATRIX: Phosphodiesterase PDE4 enzyme inhibition (substrate: [3H]cAMP + cAMP); conditions: u-937; Not Active = under 50% inhibition at 10 µM
metric name: Ki

Example entries and their recorded answers appear below.
molecule	result
COc1ccccc1C(=O)N1CCC(Cc2ccccc2)CC1	Not Active
Nc1c(CC(=O)O)cccc1C(=O)c1ccc(Br)cc1	Not Active
CCCN(CCC)C(=O)C(CCC(=O)O)NC(=O)c1ccccc1 (stereo not drawn) [PROGLUMIDE]	Not Active
COC(=O)C1=C(C)NC(C)=C(C(=O)OCC(C)C)C1c1ccccc1[N+](=O)[O-] (stereo not drawn)	Not Active

Report Ki for every entry below.
1. CCN1CC(CCN2CCOCC2)C(c2ccccc2)(c2ccccc2)C1=O (stereo not drawn)
2. CCCCN1CCCCC1C(=O)Nc1c(C)cccc1C.Cl (stereo not drawn) [BUPIVACAINE HYDROCHLORIDE]
3. CC(=O)Nc1ccc(O)cc1
4. [H]/N=C(/N)N[C@H]1[C@H](O)[C@@H](O)[C@H](O[C@@H]2O[C@@H](C)[C@](O)(C=O)[C@H]2O[C@@H]2O[C@@H](CO)[C@H](O)[C@@H](O)[C@@H]2NC)[C@@H](N/C(N)=N\[H])[C@@H]1O

Ans.
["Not Active", "Not Active", "Not Active", "Not Active"]
